target: HLA-A*31:01; assay: IEDB peptide-MHC binding, purified MHC/competitive/fluorescence; filed as Kd, often an IC50 or EC50 that approximates it; bounds were set here for any values at or beyond the usual limits of such assays; settings: source organism: Mycobacterium tuberculosis C
recorded.endpoint: Kd (nM)
State just the number; it will be interpreted in nM.

Item: VVYKTGAIR | Kd: 59.4

====

biological target: HLA-B*15:01; assay: IEDB peptide-MHC binding, purified MHC/direct/fluorescence; filed as Kd, often an IC50 or EC50 that approximates it; bounds were set here for any values at or beyond the usual limits of such assays; conditions: source organism: Cowpox virus
recorded.endpoint: pKd
Remember, pKd is on a log scale: it is -log10 of the molar concentration.

Lab note: measured pKd of ILQDRIRMY was 6.90

====

target: HLA-B*44:03; assay: IEDB peptide-MHC binding, purified MHC/competitive/fluorescence; bounds were set here for any values at or beyond the usual limits of such assays; conditions: source organism: Homo sapiens
recorded.endpoint: IC50

GSSDFQVHFLK	≥ 20 µM

Here's the next entry for you.
Given item KVADVDLAVPV , the value recorded as its IC50 is ≥ 20 µM

====

biological target: HLA-A*26:02; experiment: IEDB peptide-MHC binding, purified MHC/direct/fluorescence; filed as Kd, often an IC50 or EC50 that approximates it; bounds were set here for any values at or beyond the usual limits of such assays; settings: source organism: Variola virus
recorded.endpoint: Kd

Lookup result for FYLFTFTIY ; measured Kd: ≥ 20 µM

====

target: HLA-B*08:01; assay: IEDB peptide-MHC binding, purified MHC/direct/fluorescence; filed as Kd, often an IC50 or EC50 that approximates it; bounds were set here for any values at or beyond the usual limits of such assays; conditions: source organism: Escherichia coli O157:H7 str. EC869
pKd: −log10 of the molar value.
recorded.endpoint: pKd

pKd measured on YQAFRTKVH = ≤ 4.70

====

target: HLA-A*02:19; experiment: IEDB peptide-MHC binding, purified MHC/competitive/fluorescence; filed as Kd, often an IC50 or EC50 that approximates it; bounds were set here for any values at or beyond the usual limits of such assays; details: source organism: Toxoplasma gondii RH
recorded.endpoint: Kd (nM)
# unit: nM | format: bare number

Looking up SIFERIREA , I found its Kd recorded as 1150

====

target: HLA-A*26:01; assay: IEDB peptide-MHC binding, purified MHC/direct/fluorescence; filed as Kd, often an IC50 or EC50 that approximates it; bounds were set here for any values at or beyond the usual limits of such assays; details: source organism: Cryptosporidium parvum
# Kd annotations

ISCQIYNAL	≥ 20 µM

Entry VPPTNSINK ; Kd = ≥ 20 µM

====

Catalogue of Kd readings, one per entry.
molecular target: HLA-A*02:01; assay: IEDB peptide-MHC binding, purified MHC/competitive/radioactivity; filed as Kd, often an IC50 or EC50 that approximates it; bounds were set here for any values at or beyond the usual limits of such assays; conditions: source organism: Dengue virus 2 Jamaica/1409/1983
Numeric answer only, unit nM assumed.

VLNPYMPSV	1.38

Next, consider the following sequence.
Record YQLAVTIMA , field Kd: 42.3

====

target: HLA-B*46:01; test: IEDB peptide-MHC binding, purified MHC/direct/fluorescence; filed as Kd, often an IC50 or EC50 that approximates it; bounds were set here for any values at or beyond the usual limits of such assays; conditions: source organism: Burkholderia mallei
pKd: −log10 of the molar value.
recorded.endpoint: pKd

The measured pKd associated with EPFSRRHPL reads ≤ 4.70

====

target: HLA-A*31:01; assay: IEDB peptide-MHC binding, purified MHC/direct/fluorescence; filed as Kd, often an IC50 or EC50 that approximates it; bounds were set here for any values at or beyond the usual limits of such assays; details: source organism: Yersinia pestis
recorded.endpoint: pKd
Here pKd is given on a logarithmic scale as minus log10 of the concentration in mol/L.

Just so you know, measured pKd for TVYPKTHYV came out at 6.75

====

target: HLA-B*27:05; assay: IEDB peptide-MHC binding, purified MHC/direct/fluorescence; filed as Kd, often an IC50 or EC50 that approximates it; bounds were set here for any values at or beyond the usual limits of such assays; details: source organism: Salmonella enterica subsp. enterica serovar Typhimurium
recorded.endpoint: pKd
pKd is a log-scale quantity: -log10 of the concentration expressed in molar.

The sequence YQKKNASVY , when measured on HLA-B*27:05, yielded pKd of 5.30

====

target: HLA-A*33:01; test: IEDB peptide-MHC binding, purified MHC/competitive/radioactivity; filed as Kd, often an IC50 or EC50 that approximates it; bounds were set here for any values at or beyond the usual limits of such assays; details: source organism: SARS coronavirus Tor2
pKd: −log10 of the molar value.
// label = fulfilled if pKd is not less than 6, otherwise not fulfilled

Use these answered entries as a reference point.
LLMPILTLTR	fulfilled
SVKGLTPSK	not fulfilled
YIFFASFYY	fulfilled
GLFCLLNRY	not fulfilled
NQATTKTTFK	not fulfilled
ASANLAATK	not fulfilled

Identify whether the reported pKd of the following sequence is 6 or greater: AAYYFMKFRR fulfilled

Does pKd meet or surpass 6 for AQPLPQRQKK ? not fulfilled

Reported pKd reaches at least 6 for SQNPLAELK ? not fulfilled

Has MQKESDDYIK a recorded pKd greater than or equal to 6? not fulfilled

====

biological target: HLA-B*15:01; test: IEDB peptide-MHC binding, purified MHC/direct/fluorescence; filed as Kd, often an IC50 or EC50 that approximates it; bounds were set here for any values at or beyond the usual limits of such assays; settings: source organism: Camelpox virus CMS
recorded.endpoint: Kd (nM)
Write the number in nM without appending the unit.

Kindly note: HLA-B*15:01, WQFAIHYSF , Kd value reported: 130

====

molecular target: HLA-A*69:01; experiment: IEDB peptide-MHC binding, purified MHC/direct/fluorescence; filed as Kd, often an IC50 or EC50 that approximates it; bounds were set here for any values at or beyond the usual limits of such assays; details: source organism: Vibrio vulnificus YJ016
recorded.endpoint: Kd

So, RQLQREGLV ? Its Kd was ≥ 20 µM

====

molecular target: HLA-B*83:01; assay: IEDB peptide-MHC binding, purified MHC/competitive/fluorescence; filed as Kd, often an IC50 or EC50 that approximates it; bounds were set here for any values at or beyond the usual limits of such assays; conditions: source organism: Mycobacterium tuberculosis variant bovis BCG str. Pasteur 1173P2
pKd: −log10 of the molar value.
recorded.endpoint: pKd

Field pKd (HLA-B*83:01), entry RWRWFRAAM : ≤ 5.30

====

target: HLA-B*15:02; assay: IEDB peptide-MHC binding, purified MHC/direct/fluorescence; filed as Kd, often an IC50 or EC50 that approximates it; bounds were set here for any values at or beyond the usual limits of such assays; conditions: source organism: Variola virus
recorded.endpoint: pKd
In textbook form, pKd equals minus log to base ten of the concentration in mol/L.

What the record says about ILQDRIRMY : pKd is 7.70

====

molecular target: HLA-B*08:01; test: IEDB peptide-MHC binding, purified MHC/competitive/fluorescence; filed as Kd, often an IC50 or EC50 that approximates it; bounds were set here for any values at or beyond the usual limits of such assays; settings: source organism: Giardia lamblia ATCC 50803
recorded.endpoint: Kd

# Kd (sequence: MTFPLHFRS ) is ≥ 5 µM

====

biological target: HLA-B*15:17; test: IEDB peptide-MHC binding, purified MHC/direct/fluorescence; filed as Kd, often an IC50 or EC50 that approximates it; bounds were set here for any values at or beyond the usual limits of such assays; conditions: source organism: Cryptosporidium parvum
recorded.endpoint: Kd (nM)
Only the number, expressed in nM, is required.

Kindly note the recorded Kd for ISCQIYNAL , which is 82.6

====

molecular target: HLA-A*02:01; experiment: IEDB peptide-MHC binding, purified MHC/competitive/fluorescence; filed as Kd, often an IC50 or EC50 that approximates it; bounds were set here for any values at or beyond the usual limits of such assays; settings: source organism: Escherichia coli str. K-12 substr. W3110
recorded.endpoint: Kd

The measured Kd associated with IQFDWYPTS reads ≥ 20 µM

====

target: HLA-B*18:01; assay: IEDB peptide-MHC binding, purified MHC/direct/fluorescence; filed as Kd, often an IC50 or EC50 that approximates it; bounds were set here for any values at or beyond the usual limits of such assays; settings: source organism: Ebola virus - Gabon (1994-1997)
recorded.endpoint: Kd

For QLSLKMLSL on HLA-B*18:01, measured Kd was ≥ 20 µM

====

target: HLA-A*01:01; test: IEDB peptide-MHC binding, purified MHC/direct/fluorescence; filed as Kd, often an IC50 or EC50 that approximates it; bounds were set here for any values at or beyond the usual limits of such assays; conditions: source organism: Escherichia coli O157:H7
recorded.endpoint: Kd

// sequence YQAFRTKVH , assay HLA-A*01:01, Kd value: ≥ 20 µM
